Origin of values: ChEMBL document CHEMBL1201862

Measured GI50, listed per entry for reference.
test system: SW-620; assay: NCI tumour cell line growth inhibition, 48 h
Calls of active or inactive are those of the source. Rule as the data show it: active = GI50 up to about 1.1 µM and inactive = higher.

| compound | GI50 |
| --- | --- |
| COc1ccc2c3c1OC1C(OC)(OC)C=C[C@@]4(Br)[C@@H](C2)N(CC2CC2)CC[C@]314 (some centres undefined) | 33.7 µM (inactive) |
| O=[N+]([O-])c1cccc2nccc(NCCCO)c12 | 13.3 µM (inactive) |
| Cc1ccccc1NC(=O)/C(=N/NC(=O)CC#N)C1C(=O)N(c2ccccc2)N=C1N (centres undefined) | > 100 µM (inactive) |
| O=C1c2cscc2C(=O)c2c(OCc3ccccc3)ccc(OCc3ccccc3)c21 | > 100 µM (inactive) |

---

system: M14; assay: NCI tumour cell line growth inhibition, 48 h
Activity calls are given as the source filed them. Cut-off read from the data, not from the text of the source: active = GI50 up to about 1.1 µM and inactive = higher.
Measured GI50, listed per entry for reference.
propertyMeasured: GI50

| inputSmiles | experimentalTarget | propertyMeasured | result |
| --- | --- | --- | --- |
| COC(=N)c1ncn(Cc2ccccc2)c1N | M14 | GI50 | > 100 µM (inactive) |
| CN(C)C(=O)O/N=C1/C(=C2/C(=O)Nc3ccccc32)Nc2ccccc21 | M14 | GI50 | 50.1 µM (inactive) |
| CC(=O)N1N=C(N)CC1=O | M14 | GI50 | > 100 µM (inactive) |
| COc1ccc(-c2nc(-c3cc4ccccc4oc3=O)cs2)cc1 | M14 | GI50 | > 100 µM (inactive) |
| Cc1ccc(NC(=O)/C(CC(=O)c2c[n+]([O-])c3ccccc3[n+]2[O-])=N\NC(=O)C[n+]2ccccc2)cc1 | M14 | GI50 | > 100 µM (inactive) |

---

tested on: OVCAR-8; test: NCI tumour cell line growth inhibition, 48 h
The source made the active and inactive calls. Rule as the data show it: active = GI50 up to about 1.1 µM and inactive = higher.
Classes used: active, inactive

| molecule | group |
| --- | --- |
| CC(=O)CC1(CBr)Nc2ccc([N+](=O)[O-])cc2NC1=O (stereo not given) | inactive |
| CCN(CC)CCCNc1nncc2c(C)c3[nH]c4ccccc4c3cc12 | active |
| O=C(c1ccccc1)n1[nH]c(=O)n(-c2ccc(Cl)cc2)c1=O | inactive |
| COc1ccc(-c2nc3ccccc3c(=S)n2OC(C)=O)cc1 | inactive |
| N#Cc1c2c(c(Cl)n3c1nc1ccccc13)CCCC2 | inactive |
| CC(=O)Oc1cc(Cl)c(C)c2c1[C@H]1CC[C@]3(C)[C@@H](OC(C)=O)CC[C@H]3[C@@H]1CC2 | inactive |
| O=C(O)CCC(NC(=O)c1ccc(Nc2cnc3cc(C(F)(F)F)ccc3n2)cc1)C(=O)O (stereo not given) | inactive |
| C=C(c1ccccc1)[C@@]1(O)CCCC[C@H]1NC(c1ccccc1)c1ccccc1 | inactive |
| CCOC(=O)C(C)NC(=O)N(C)C12CC3CC(CC(C3)C1)C2 (stereo not given) | inactive |
| COC(=O)C1CC2(c3ccccc3)C(=O)c3ccccc3N2O1 (stereo not given) | inactive |

---

Measured GI50, listed per entry for reference.
system: SNB-19; assay: NCI tumour cell line growth inhibition, 48 h
Active and inactive are the calls of the source. Cut-off read from the data, not from the text of the source: active = GI50 up to about 1.1 µM and inactive = higher.
propertyMeasured: GI50

| compound | result |
| --- | --- |
| CCOC(=O)Nc1ccc(S(=O)(=O)OC)cc1.CCOC(=O)Nc1ccc(S(=O)(=O)OC)cc1.NC(=O)NCCO | > 50 µM (inactive) |
| C[C@]12CC[C@H](O)CC1=CC[C@@H]1C2CC[C@]2(C)C(=O)NC(=O)CC12 (some centres undefined) | > 100 µM (inactive) |
| COc1cc([C@@H]2c3cc4c(cc3[C@H](OC3OC5COC(C(C)C)OC5C(O)C3O)C3COC(=O)[C@@H]32)OCO4)cc(OC)c1OC (some centres undefined) | 6.19 µM (inactive) |
| CCOC(=O)/C(=C\c1ccc(OCc2ccccc2)c(OC)c1)C(=O)c1ccccc1 | 27.7 µM (inactive) |
| COc1nc(N)c(NC(C)=O)c(=O)n1C | > 100 µM (inactive) |
| CN(C)CC1(Cc2ccccc2)CCC(Cc2ccccc2)C1=O (centres undefined) | 16 µM (inactive) |
| O=C1OC(c2ccccc2)=N/C1=C\c1ccc(F)cc1 | > 100 µM (inactive) |
| COC(=O)C1(C)CC2C(C)(CCC3(C)C4=CC=C5C(=CC(=O)C(O)=C5C)C4(C)CCC23C)CC1O (centres undefined) | 1.59 µM (inactive) |
| CC1=NN(C(=O)c2ccc(Cl)cc2)C(=O)/C1=C/c1cccc([N+](=O)[O-])c1 | > 100 µM (inactive) |
